# system: human HDAC4 (Homo sapiens, UniProt P56524)
# Construct: FLAG; made in house; host or cells: 293T cells, transient transfection; anti-FLAG immunoprecipitation and FLAG peptide elution
# Sequence (P56524 whole entry): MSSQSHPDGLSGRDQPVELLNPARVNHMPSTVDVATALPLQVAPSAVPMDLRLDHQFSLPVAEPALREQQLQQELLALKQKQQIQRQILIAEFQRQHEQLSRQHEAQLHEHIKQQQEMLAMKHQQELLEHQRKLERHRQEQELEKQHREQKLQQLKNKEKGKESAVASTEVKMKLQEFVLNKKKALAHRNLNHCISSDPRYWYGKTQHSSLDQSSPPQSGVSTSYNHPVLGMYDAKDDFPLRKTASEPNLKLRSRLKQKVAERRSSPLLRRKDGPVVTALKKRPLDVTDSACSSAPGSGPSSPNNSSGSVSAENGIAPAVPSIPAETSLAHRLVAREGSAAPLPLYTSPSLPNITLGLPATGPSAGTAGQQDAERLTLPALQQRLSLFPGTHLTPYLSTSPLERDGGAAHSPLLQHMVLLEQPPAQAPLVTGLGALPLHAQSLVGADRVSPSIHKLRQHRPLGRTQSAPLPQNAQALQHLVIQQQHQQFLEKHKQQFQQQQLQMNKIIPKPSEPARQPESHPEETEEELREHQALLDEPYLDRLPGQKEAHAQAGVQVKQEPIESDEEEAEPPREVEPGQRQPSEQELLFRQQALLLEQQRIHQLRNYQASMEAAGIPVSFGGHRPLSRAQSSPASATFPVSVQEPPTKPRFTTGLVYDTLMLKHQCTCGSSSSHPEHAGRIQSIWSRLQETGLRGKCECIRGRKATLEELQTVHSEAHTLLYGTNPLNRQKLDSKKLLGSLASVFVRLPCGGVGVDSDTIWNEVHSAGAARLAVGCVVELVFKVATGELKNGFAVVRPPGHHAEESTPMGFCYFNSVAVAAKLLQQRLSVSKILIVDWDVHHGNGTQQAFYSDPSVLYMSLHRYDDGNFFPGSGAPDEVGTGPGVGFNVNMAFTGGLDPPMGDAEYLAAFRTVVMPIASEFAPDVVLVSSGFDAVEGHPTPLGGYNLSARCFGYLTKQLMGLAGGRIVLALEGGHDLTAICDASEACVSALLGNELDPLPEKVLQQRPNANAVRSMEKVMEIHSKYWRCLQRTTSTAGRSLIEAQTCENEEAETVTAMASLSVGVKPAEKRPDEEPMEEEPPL
# measurement-description: HDAC inhibitory activity in vitro (coumarin-labeled acetylated histone peptide), HDAC4
# Type: biochemical
# test-context: Table 1; 37° C., 30 minutes; read-out: IC50 (μM) HDAC4
Where a SMILES comes first, the peptide text is derived from it. [ ]: non-standard residue; d: D form. hLys(Nζ-OH,Nζ-For) = N[C@@H](CCCCCN(O)C=O)C(=O)O; Asu = N[C@@H](CCCCCC(=O)O)C(=O)O
I'd appreciate it if you could supply log10(IC50) values for the items below.
Response schema: value (number) is log10 of IC50 in units of µM.

Worked cases, answers included:
{"molecule": "CC[C@H](C)[C@@H]1NC(=O)[C@@H](Cc2ccc(OC)cc2)NC(=O)[C@H](CCCCN(O)C=O)NC(=O)[C@@H]2CCCCN2C1=O", "log10(IC50)": 1.24}
{"molecule": "CC[C@H](C)[C@@H]1NC(=O)[C@@H](Cc2ccc(OC)cc2)NC(=O)[C@H](CCCCCN(O)C=O)NC(=O)[C@H]2CCCN2C1=O [N(OH)COH Cyclo(X-y(Me)-I-p), n = 5] (cyclo([hLys(Nζ-OH,Nζ-For)][dY](Me)I[dP]))", "log10(IC50)": -1.13}
{"molecule": "CC[C@H](C)[C@@H]1NC(=O)[C@@H](Cc2ccc(OC)cc2)NC(=O)[C@H](CCCCCCN(O)C=O)NC(=O)[C@H]2CCCCN2C1=O", "log10(IC50)": 0.85}

Give me log10(IC50) for each of these molecules, listed below.
1. CC[C@H](C)[C@@H]1NC(=O)[C@@H](Cc2ccc(OC)cc2)NC(=O)[C@H](CCCCCC(=O)OC)NC(=O)[C@H]2CCCN2C1=O [COOMe] (cyclo([Asu](OMe)[dY](Me)I[dP]))
2. CC[C@H](C)[C@@H]1NC(=O)[C@@H](Cc2ccc(OC)cc2)NC(=O)[C@H](CCCCCC(=O)O)NC(=O)[C@H]2CCCN2C1=O [COOH, cyclo(L-Asu-D-Tyr(Me)-L-Ile-D-Pro)] (cyclo([Asu][dY](Me)I[dP]))

Output:
1: -1.15; 2: 0.76
